Documented INS1e assay EC50 (cAMP) Mean across a set of binders
Biological target: T1, GLP-1R in the INS1e assay (UniProt P32301 22-463, limits assumed)
T1 sequence (looked up): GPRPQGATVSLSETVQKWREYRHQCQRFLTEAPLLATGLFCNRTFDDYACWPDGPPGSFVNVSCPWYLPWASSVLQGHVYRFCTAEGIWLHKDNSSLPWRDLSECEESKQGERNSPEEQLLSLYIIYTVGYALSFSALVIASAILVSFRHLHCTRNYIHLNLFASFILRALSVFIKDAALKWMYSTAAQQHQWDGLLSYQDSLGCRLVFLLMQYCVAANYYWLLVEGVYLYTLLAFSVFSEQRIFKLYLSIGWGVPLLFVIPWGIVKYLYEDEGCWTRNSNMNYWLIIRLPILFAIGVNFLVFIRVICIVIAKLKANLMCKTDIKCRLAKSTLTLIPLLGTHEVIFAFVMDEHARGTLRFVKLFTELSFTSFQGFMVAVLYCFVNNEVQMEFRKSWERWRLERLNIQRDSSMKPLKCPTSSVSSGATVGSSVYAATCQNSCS
Assay: cell-based or functional assay
Starred links: 1 amine or outer side, 2 acyl side, 3 side chain; linkers in the order of their positions; H or OH if unused. Non-standard residues stand in square brackets, D forms with d. Groups on a side chain read outwards from the residue. Primed or numbered codes have the meaning given here. No end group written: not given here. *: point of attachment. γGlu = O=C(O)[C@H](CCC(=O)[*:2])N[*:1]; αMeF = C[C@](N)(Cc1ccccc1)C(=O)O; αMeK = C[C@](N)(CCCCN)C(=O)O; Lauroyl = CCCCCCCCCCCC(=O)*; αMeS = C[C@](N)(CO)C(=O)O; PEG2′ = not defined here; Aib = CC(C)(N)C(=O)O

Guide cases for INS1e assay EC50 (cAMP) Mean, answers given:
* H[Aib]EGS[αMeF]TSDVSK([PEG2′-PEG2′-γGlu-Lauroyl])FLEGEAAEEFIK([PEG2′-PEG2′-γGlu-Lauroyl])FVVEGG-NH2 [SEQ ID NO: 241] | 6.28 nM
* H[Aib]EGS[αMeF]TSDVSK([PEG2′-PEG2′-γGlu-Lauroyl])YLEGEAAEEFIK([PEG2′-PEG2′-γGlu-Lauroyl])WVVEGG-NH2 [SEQ ID NO: 240] | 6.02 nM
* H[Aib]EGS[αMeF]TSDV[αMeS]SYK([PEG2′-PEG2′-γGlu-Lauroyl])EGEAA[αMeK]EFIK([PEG2′-PEG2′-γGlu-Lauroyl])WVVEGG-NH2 [SEQ ID NO: 268] | 1.16 nM

Could you share which INS1e assay EC50 (cAMP) Mean value was measured for H[Aib]EGS[αMeF]TSDVSK([PEG2′-PEG2′-γGlu-Lauroyl])FLEGEAA[αMeK]EFIK([PEG2′-PEG2′-γGlu-Lauroyl])FVVEGG-NH2 [SEQ ID NO: 248] ?
0.403 nM
